# Tested on: A. baumannii NCTC13423
# protocol details: MIC susceptibility testing, broth microdilution in CaMHB
# Format: cell-based, Acinetobacter baumannii
# condition summary: Table 4A, different batches of cation-adjusted Muller-Hinton broth
Counter-ions that a name gives are not always drawn. Where a SMILES comes first, the peptide text is derived from it. Bridges are numbered along the chain shown (N, C = ends). [ ]: non-standard residue; d: D form. The star is where a group is joined. ξ: configuration not given here. ξHexahydromandeloyl = O=C(C(O)C1CCCCC1)*; ξβ3hGly(cHex) = NC(CC(=O)*)C1CCCCC1; Thr(3ξ) = CC(O)[C@H](N)C(=O)O; X5 = CC(C)[C@H](N)CCC(=O)*; Dab = NCC[C@H](N)C(=O)O; X1 = CCCCCCC(O)C(=O)*; X4 = CN(C)CCCC(=O)*; Ava = NCCCCC(=O)O
property name: log10(MIC) (log10 of the value in micrograms/mL)
Record value = log10 of MIC given in micrograms/mL.

| compound | log10(MIC) |
| --- | --- |
| CC(C)C[C@@H]1NC(=O)[C@@H](Cc2ccccc2)NC(=O)[C@H](CCN)NC(=O)[C@@H](NC(=O)[C@H](CCN)NC(=O)[C@@H](NC(=O)CCCN(C)C)C(C)O)CCNC(=O)[C@H](C(C)O)NC(=O)[C@H](CCN)NC(=O)[C@H](CCN)NC1=O (stereo partly drawn) [Example 18] (X4-[Thr(3ξ)][Dab][Dab][Dab][dF]L[Dab][Dab][Thr(3ξ)]; lactam 3-C) | 0.60 |
| CC(C)C[C@@H]1NC(=O)[C@@H](Cc2ccccc2)NC(=O)[C@H](CCN)NC(=O)[C@@H](NC(=O)[C@H](CCN)NC(=O)[C@@H](NC(=O)C(O)C2CCCCC2)C(C)O)CCNC(=O)[C@H](C(C)O)NC(=O)[C@H](CCN)NC(=O)[C@H](CCN)NC1=O (stereo partly drawn) [Example 34] (ξHexahydromandeloyl-[Thr(3ξ)][Dab][Dab][Dab][dF]L[Dab][Dab][Thr(3ξ)]; lactam 3-C) | -0.60 |
| CCCCCCC(O)C(=O)N[C@H](C(=O)N[C@@H](CCN)C(=O)N[C@H]1CCNC(=O)[C@H](C(C)O)NC(=O)[C@H](CCN)NC(=O)[C@H](CCN)NC(=O)[C@H](CC(C)C)NC(=O)[C@@H](Cc2ccccc2)NC(=O)[C@H](CCN)NC1=O)C(C)O (stereo partly drawn) [Example 2, Sulphate Salt] (X1-[Thr(3ξ)][Dab][Dab][Dab][dF]L[Dab][Dab][Thr(3ξ)]; lactam 3-C) | 0.00 |
| CC(C)C[C@@H]1NC(=O)[C@@H](Cc2ccccc2)NC(=O)[C@H](CCN)NC(=O)[C@@H](NC(=O)[C@H](CCN)NC(=O)[C@@H](NC(=O)CC(N)C2CCCCC2)C(C)O)CCNC(=O)[C@H](C(C)O)NC(=O)[C@H](CCN)NC(=O)[C@H](CCN)NC1=O (stereo partly drawn) [Example 14, Sulphate Salt] ({ξβ3hGly(cHex)}-[Thr(3ξ)][Dab][Dab][Dab][dF]L[Dab][Dab][Thr(3ξ)]; lactam 3-C) | -0.90 |

Challenge: # returns recorded log10(MIC) (system: A. baumannii NCTC13423) for CC(C)C[C@@H]1NC(=O)[C@@H](Cc2ccccc2)NC(=O)[C@H](CCN)NC(=O)[C@@H](NC(=O)[C@H](CCN)NC(=O)[C@@H](NC(=O)CC[C@@H](N)C(C)C)C(C)O)CCNC(=O)[C@H](C(C)O)NC(=O)[C@H](CCN)NC(=O)[C@H](CCN)NC1=O (stereo partly drawn) [Example 29] (X5-[Thr(3ξ)][Dab][Dab][Dab][dF]L[Dab][Dab][Thr(3ξ)]; lactam 3-C)
Response given: -0.30

Challenge: Entry to check: CC(C)C[C@@H]1NC(=O)[C@@H](Cc2ccccc2)NC(=O)[C@H](CCN)NC(=O)[C@@H](NC(=O)[C@H](CCN)NC(=O)[C@@H](NC(=O)CCCCN)C(C)O)CCNC(=O)[C@H](C(C)O)NC(=O)[C@H](CCN)NC(=O)[C@H](CCN)NC1=O (stereo partly drawn) [Example 15, 5-Aminopentanoyl polymyxin B nonapeptide] (H-[Ava][Thr(3ξ)][Dab][Dab][Dab][dF]L[Dab][Dab][Thr(3ξ)]; lactam 4-C)
Response given: 0.60

The origin of these recorded values is patent US9234006B2.
